Test system: U251 CNS
assay-protocol: NCI-60 one-dose screen, 48 h (100 = growth as untreated, 0 = no growth, -100 = all killed)
condition-context: 10 µM unless noted
Method: Growth inhibition of the U251 human tumor cell line is measured as a screen for anti-cancer activity. Cells are grown in 96 well plates and exposed to the test compound for 48 hours. Compounds are tested at a single concentration, which is 10^-5 M for most compounds. The reported endpoint is percent growth (GI% or GIPRCNT), where numbers from 0 - 100% represent growth inhibition, and numbers from -100% - 0 represent cell death. For example, a value of 40 represents 60% growth inhibition. […]
Compounds without any hit were thinned out: in the full panel of roughly 83,000, 20% have a hit.
growth of 90% or higher: Satisfied. Under 90%: Not satisfied.

{"molecule": "CO/C(=C1/NC(=O)C(Cc2ccc(O)c(Br)c2)N(C)C(=O)C(C)NC(=O)CCC/C=C(\\C)CCC(C)OC1=O)c1ccccc1 (stereo not given)", "assay-system": "U251 CNS", "assigned-label": "Not satisfied"}
{"molecule": "COc1ccc(/C(C)=C(\\c2ccc(Cl)cc2)c2ccc(OCCN3CCCC3)cc2)cc1F", "assay-system": "U251 CNS", "assigned-label": "Not satisfied"}
{"molecule": "CCN(CC)CCOC(=O)Nc1ccccc1Cl", "assay-system": "U251 CNS", "assigned-label": "Satisfied"}
{"molecule": "COc1ccc(OC)c(Nc2nc3nonc3nc2Nc2cccc(Br)c2)c1", "assay-system": "U251 CNS", "assigned-label": "Not satisfied"}
{"molecule": "COc1ccc(-c2nnc(SCC(=O)NC3=NN=C(c4ccccc4)CS3)o2)cc1", "assay-system": "U251 CNS", "assigned-label": "Not satisfied"}
{"molecule": "CCCc1nc2ccccn2c1Nc1ccc(C(=O)NO)cc1", "assay-system": "U251 CNS", "assigned-label": "Satisfied"}
{"molecule": "Nc1nc(I)c2ncn(C3OC(CO)C(O)C3O)c2n1 (stereo not given)", "assay-system": "U251 CNS", "assigned-label": "Satisfied"}
{"molecule": "COc1ccc(-c2cncnc2N)cc1OC", "assay-system": "U251 CNS", "assigned-label": "Satisfied"}
{"molecule": "COc1ccc(/C=N/NC(=O)Cn2c(-c3ccc(S(C)(=O)=O)cc3)nc3cc(Cl)ccc32)cc1", "assay-system": "U251 CNS", "assigned-label": "Not satisfied"}

###

Tested on: HCT-15 colon
assay-protocol: NCI-60 one-dose screen, 48 h
condition-context: 10 µM unless noted
This is part of a sample that, as a whole, favours compounds with a hit. Of some 83,000 tested, about 20% had one in any assay. Active and inactive are the calls of the source. Rule for the calls: active = growth percent below 10; inactive = the rest.
Classes used: YES (active), NO (inactive)

{"compound": "CC(C)(C)N1CC(OC(N)=O)C1", "assigned-label": "NO"}
{"compound": "Cc1[nH]c(-c2nc3ccccc3[nH]2)c(C)c1C(=O)N1CCc2sccc2C1", "assigned-label": "NO"}
{"compound": "Cn1cc(-c2ccc3nc(-c4ccc(CC(=O)Nc5cc(C(C)(C)C)no5)cc4)cnc3c2)cn1", "assigned-label": "NO"}
{"compound": "COc1ccc(Nc2ncc(Br)c(NCCCNC(=O)C3CCC3)n2)cc1", "assigned-label": "NO"}
{"compound": "Cc1cc(=O)[nH]c(N/N=C/c2cc(Br)ccc2O)n1", "assigned-label": "NO"}
{"compound": "CC(C)CCC[C@@H](C)[C@H]1CCC2C3=CCn4c(=O)ccc(=O)n4C3CC[C@@]21C (stereo partly specified)", "assigned-label": "YES"}
{"compound": "N#Cc1c(N)nc2c(nnn2-c2cccc(Br)c2)c1N", "assigned-label": "NO"}
{"compound": "N#Cc1cnn2c(-c3ccc(Cl)cc3)nc(NC3CC3)nc12", "assigned-label": "NO"}
{"compound": "O=C(Nc1ccccc1Cl)OCCN1CCOCC1", "assigned-label": "NO"}
{"compound": "c1ccc(-c2oc3ccccc3c2-c2ccccc2)cc1", "assigned-label": "NO"}
{"compound": "CC(=[N-])N1CCC[C@@H](Nc2c3ccccc3nc3ccccc23)C1.[Cl][Pt].[NH-]CCC[NH-]", "assigned-label": "NO"}
{"compound": "CCOC(=O)C(O)C(O)(c1ccccc1)c1ccccc1 (stereo unspecified)", "assigned-label": "NO"}
{"compound": "O=C1Nc2ccccc2SC1C1SC(=S)N(Cc2ccccc2)C1=O (stereo unspecified)", "assigned-label": "NO"}
{"compound": "CN1C(=O)CCC(N2C(=O)c3cccc(NCCOCCOCCNC(=O)c4cc5c(o4)C(=O)c4ccccc4C5=O)c3C2=O)C1=O (stereo unspecified)", "assigned-label": "YES"}
{"compound": "Clc1cnc(Nc2ccc(OCCN3CCCC3)cc2)nc1NCc1ccco1", "assigned-label": "YES"}
{"compound": "CN1CCN(C2=C(Cl)C(=O)c3ccccc3C2=O)CC1", "assigned-label": "NO"}
{"compound": "Cn1ccnc1C(=O)/C=C/c1ccc(C(=O)Nc2ccc(S(F)(F)(F)(F)F)cc2)cc1", "assigned-label": "YES"}
{"compound": "CC(C)n1nc(C#Cc2cccc3cc(-c4cccc(C(F)(F)F)c4)ncc23)c2c(N)ncnc21", "assigned-label": "NO"}
{"compound": "O=C(NC(=S)Nc1ccc(-c2nc3ccccc3[nH]2)cc1)c1ccc2ccccc2c1", "assigned-label": "NO"}
{"compound": "COc1cc2c(cc1OC)-c1ccc3cc4c(cc3c1N(CCCn1ccnc1)C2)OCO4", "assigned-label": "NO"}
{"compound": "COc1ccc(-c2cc(-c3ccc(Nc4nc(Nc5ccccc5)nc(Nc5ccc(Cl)cc5)n4)cc3)nc(N)n2)cc1", "assigned-label": "NO"}
